- Tested on: Athelia rolfsii
- test_details: Fungicidal activity against Athelia rolfsii assessed as fungal growth inhibition at 28 degC by poisoned food technique
- Format: functional
- experimental_conditions: Agroathelia rolfsii; read-out: ED50 (the source's name)
quantity_kind: EC50 (µg/mL)

| smiles_input | quantity_kind | unit_annotation | recorded_number |
| --- | --- | --- | --- |
| O=[N+]([O-])c1cccc(/C=N/c2cccc(F)c2)c1 | EC50 | µg/mL | 175 |
| Clc1ccc(/C=N/c2ccco2)c(Cl)c1 | EC50 | µg/mL | 35.2 |
| Fc1cccc(/N=C/c2c(Cl)cccc2Cl)c1 | EC50 | µg/mL | 87 |
